TEST TARGET: AR (Homo sapiens, UniProt P10275)
Construct: endogenous in cells; host or cells: VCaP cells
Sequence (P10275 whole entry): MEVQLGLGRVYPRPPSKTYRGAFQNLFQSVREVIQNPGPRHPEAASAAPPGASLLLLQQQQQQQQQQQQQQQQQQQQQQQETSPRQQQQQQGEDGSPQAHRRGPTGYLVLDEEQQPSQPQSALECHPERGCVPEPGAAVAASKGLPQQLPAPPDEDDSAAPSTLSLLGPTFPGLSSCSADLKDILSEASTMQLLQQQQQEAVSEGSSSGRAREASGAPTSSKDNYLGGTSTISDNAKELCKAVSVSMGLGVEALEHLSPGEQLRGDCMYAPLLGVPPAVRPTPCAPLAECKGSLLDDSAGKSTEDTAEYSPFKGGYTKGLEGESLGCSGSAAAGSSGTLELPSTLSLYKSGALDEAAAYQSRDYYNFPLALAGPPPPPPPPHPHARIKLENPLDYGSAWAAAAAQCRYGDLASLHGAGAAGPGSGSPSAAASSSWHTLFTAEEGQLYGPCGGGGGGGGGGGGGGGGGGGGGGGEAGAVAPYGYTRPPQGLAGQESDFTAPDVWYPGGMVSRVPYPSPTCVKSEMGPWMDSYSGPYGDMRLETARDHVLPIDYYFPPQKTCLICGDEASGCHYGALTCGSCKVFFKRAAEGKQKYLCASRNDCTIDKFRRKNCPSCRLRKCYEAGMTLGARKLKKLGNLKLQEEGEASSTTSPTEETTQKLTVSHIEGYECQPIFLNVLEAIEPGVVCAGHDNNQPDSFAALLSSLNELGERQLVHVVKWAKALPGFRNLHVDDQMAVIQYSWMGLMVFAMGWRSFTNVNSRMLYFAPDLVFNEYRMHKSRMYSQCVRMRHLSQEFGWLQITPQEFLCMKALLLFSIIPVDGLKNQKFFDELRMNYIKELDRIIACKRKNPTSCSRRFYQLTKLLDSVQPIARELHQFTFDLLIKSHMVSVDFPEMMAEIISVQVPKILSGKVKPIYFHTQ
ASSAY REMARKS: VCAP AR Degradation Assay
Type: cell-based
REPORTED CONDITIONS: class symbols *, **
ENDPOINT LABEL: Y (AR degradation efficiency, % of DMSO control)

# COMPOUND, ASSAY VALUE
rows = [
    ("CC(C)c1cc(N2C(=S)N(c3ccc(C#N)c(Cl)c3)C(=O)C2(C)C)ccc1OCCN1C[C@@H](C)N(CC(=O)Nc2cc(Cl)cc(NC3CCC(=O)NC3=O)c2)[C@@H](C)C1 (some centres unmarked)", "** (25%<Y<=35%)"),
    ("CCc1cc(N2C(=S)N(c3ccc(C#N)c(C(F)(F)F)c3)C(=O)C2(C)C)ccc1OCCN1C[C@H](C)N(CC(=O)Nc2cc(Cl)cc(NC3CCC(=O)NC3=O)c2)C[C@H]1C (some centres unmarked)", "* (0<Y<=25%)"),
    ("CCc1cc(N2C(=S)N(c3ccc(C#N)c(C(F)(F)F)c3)C(=O)C2(C)C)ccc1OCCN1C[C@@H](C)N(CC(=O)Nc2cccc(N[C@@H]3CCC(=O)NC3=O)c2)[C@@H](C)C1", "* (0<Y<=25%)"),
    ("CCc1cc(N2C(=S)N(c3ccc(C#N)c(C(F)(F)F)c3)C(=O)C23CCC3)ccc1OCCN1CCN(CC(=O)Nc2cc(Cl)cc(NC3CCC(=O)NC3=O)c2)[C@H](C)C1 (some centres unmarked)", "* (0<Y<=25%)"),
    ("CCc1cc(N2C(=S)N(c3cnc(C#N)c(C(F)(F)F)c3)C(=O)C2(C)C)ccc1OCCN1C[C@@H]2C[C@H]1CN2CC(=O)Nc1cc(Cl)cc(NC2CCC(=O)NC2=O)c1 (some centres unmarked)", "** (25%<Y<=35%)"),
    ("CCc1cc(N2C(=S)N(c3cnc(C#N)c(C(F)(F)F)c3)C(=O)C2(C)C)ccc1OCCN1CCN(CC(=O)Nc2cccc(NC3CCC(=O)NC3=O)c2)[C@H](C)C1 (some centres unmarked)", "* (0<Y<=25%)"),
    ("CCc1cc(N2C(=S)N(c3cnc(C#N)c(C(F)(F)F)c3)C(=O)C2(C)C)ccc1OCCN1CCN(CC(=O)Nc2cccc(N[C@H]3CCC(=O)NC3=O)c2)[C@H](C)C1", "* (0<Y<=25%)"),
    ("C[C@@H]1CN(CCOc2ccc(N3C(=S)N(c4ccc(C#N)c(Cl)c4)C(=O)C3(C)C)cc2C2CC2)C[C@H](C)N1CC(=O)Nc1cccc(NC2CCC(=O)NC2=O)c1 (some centres unmarked)", "* (0<Y<=25%)"),
    ("CC(C)c1cc(N2C(=S)N(c3ccc(C#N)c(Cl)c3)C(=O)C2(C)C)ccc1OCCN1C[C@@H](C)N(CC(=O)Nc2cc(C#N)cc(NC3CCC(=O)NC3=O)c2)[C@@H](C)C1 (some centres unmarked)", "* (0<Y<=25%)"),
    ("CC(C)c1cc(N2C(=S)N(c3cnc(C#N)c(C(F)(F)F)c3)C(=O)C23CCC3)ccc1OCCN1C[C@@H](C)N(CC(=O)Nc2cc(Cl)cc(NC3CCC(=O)NC3=O)c2)[C@@H](C)C1 (some centres unmarked)", "* (0<Y<=25%)"),
    ("CCc1cc(N2C(=S)N(c3ccc(C#N)c(C(F)(F)F)c3)C(=O)C2(C)C)c(F)cc1OCCN1C[C@@H](C)N(CC(=O)Nc2cccc(NC3CCC(=O)NC3=O)c2)[C@@H](C)C1 (some centres unmarked)", "* (0<Y<=25%)"),
    ("CC1(C)C(=O)N(c2cnc(C#N)c(C(F)(F)F)c2)C(=S)N1c1ccc(OCCN2CCN(CC(=O)Nc3cc(NC4CCC(=O)NC4=O)ccc3F)CC2)c(CCF)c1 (centres unmarked)", "* (0<Y<=25%)"),
    ("CCc1cc(N2C(=S)N(c3ccc(C#N)c(C(F)(F)F)c3)C(=O)C2(C)C)ccc1OCCN1C[C@H](C)N(CC(=O)Nc2cc(Cl)cc(NC3CCC(=O)NC3=O)c2)C[C@@H]1C (some centres unmarked)", "* (0<Y<=25%)"),
    ("CC(C)c1cc(N2C(=S)N(c3cnc(C#N)c(C(F)(F)F)c3)C(=O)C2(C)C)ccc1OCCN1CCN(CC(=O)Nc2cccc(NC3CCC(=O)NC3=O)c2)[C@H](C(F)(F)F)C1 (some centres unmarked)", "** (25%<Y<=35%)"),
    ("CCc1cc(N2C(=S)N(c3ccc(C#N)c(C(F)(F)F)c3)C(=O)C2(C)C)cnc1OCCN1C[C@@H](C)N(CC(=O)Nc2cc(Cl)cc(NC3CCC(=O)NC3=O)c2)C[C@H]1C (some centres unmarked)", "* (0<Y<=25%)"),
    ("CC(C)c1cc(N2C(=S)N(c3cnc(C#N)c(C(F)(F)F)c3)C(=O)C23CCC3)ccc1OCCN1C[C@@H](C)N(CC(=O)Nc2cc(C#N)cc(NC3CCC(=O)NC3=O)c2)[C@@H](C)C1 (some centres unmarked)", "* (0<Y<=25%)"),
    ("CC(C)c1cc(N2C(=S)N(c3cnc(C#N)c(C(F)(F)F)c3)C(=O)C2(C)C)ccc1OCCN1C[C@@H](C)N(CC(=O)Nc2cc(Cl)cc(NC3CCC(=O)NC3=O)c2)C[C@H]1C (some centres unmarked)", "* (0<Y<=25%)"),
    ("CCc1cc(N2C(=S)N(c3cnc(C#N)c(C(F)(F)F)c3)C(=O)C2(C)C)ccc1OCCN1C[C@H]2CC[C@@H]1CN2CC(=O)Nc1cc(Cl)cc(NC2CCC(=O)NC2=O)c1 (some centres unmarked)", "** (25%<Y<=35%)"),
    ("CCc1cc(N2C(=S)N(c3ccc(C#N)c(C(F)(F)F)c3)C(=O)C2(C)C)ccc1OC[C@@H](C)N1C[C@@H](C)N(CC(=O)Nc2cccc(NC3CCC(=O)NC3=O)c2)[C@@H](C)C1 (single isomer, unassigned)", "** (25%<Y<=35%)"),
    ("CCc1cc(N2C(=S)N(c3cnc(C#N)c(C(F)(F)F)c3)C(=O)C2(C)C)ccc1OCCN1CCN(CC(=O)Nc2cc(NC3CCC(=O)NC3=O)ccc2Cl)CC1 (single isomer, unassigned)", "* (0<Y<=25%)"),
]

Data origin, for the record: patent US12404241B2
